# target desc: T1, BALBc mouse SIRP-α (mouse (BALB/c strain))
# T1 chain: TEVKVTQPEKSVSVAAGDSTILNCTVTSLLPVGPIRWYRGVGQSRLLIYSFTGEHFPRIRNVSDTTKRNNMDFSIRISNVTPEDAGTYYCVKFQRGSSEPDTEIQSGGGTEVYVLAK
# assay name: SPR
value type: koff
Param answer (str): number followed by unit.

Solved entries:
[[record]]
binder = "Hum1/AB25_HC_wt (antibody, V domains shown) VH: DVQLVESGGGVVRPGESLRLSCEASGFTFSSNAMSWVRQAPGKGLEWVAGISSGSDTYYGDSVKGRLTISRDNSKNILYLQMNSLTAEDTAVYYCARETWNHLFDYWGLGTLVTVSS VL: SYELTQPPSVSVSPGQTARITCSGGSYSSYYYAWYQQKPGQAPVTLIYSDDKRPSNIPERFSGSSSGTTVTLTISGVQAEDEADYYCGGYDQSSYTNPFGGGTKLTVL"
value_type = "koff"
endpoint_result = "0.00374 s⁻¹"

[[record]]
binder = "antibody 66 (antibody, V domains shown, also called AB66; S66) VH: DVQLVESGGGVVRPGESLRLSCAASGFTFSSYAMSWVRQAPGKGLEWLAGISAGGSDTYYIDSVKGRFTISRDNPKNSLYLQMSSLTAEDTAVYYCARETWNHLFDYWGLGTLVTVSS VL: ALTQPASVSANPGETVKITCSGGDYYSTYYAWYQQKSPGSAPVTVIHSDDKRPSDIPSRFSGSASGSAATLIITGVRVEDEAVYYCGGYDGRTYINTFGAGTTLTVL"
value_type = "koff"
endpoint_result = "0.00346 s⁻¹"

[[record]]
binder = "antibody 27 (antibody, V domains shown, also called AB27; S27) VH: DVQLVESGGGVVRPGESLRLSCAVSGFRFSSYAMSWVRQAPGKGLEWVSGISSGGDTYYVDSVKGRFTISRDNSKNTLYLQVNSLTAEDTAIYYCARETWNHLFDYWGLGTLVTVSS VL: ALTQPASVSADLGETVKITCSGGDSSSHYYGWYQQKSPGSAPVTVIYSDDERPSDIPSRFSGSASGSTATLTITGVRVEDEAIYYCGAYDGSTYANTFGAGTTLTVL"
value_type = "koff"
endpoint_result = "0.005 s⁻¹"


// moving on: another record for koff
[in] koff lookup needed for Hum1/AB27_HC_wt (antibody, V domains shown) VH: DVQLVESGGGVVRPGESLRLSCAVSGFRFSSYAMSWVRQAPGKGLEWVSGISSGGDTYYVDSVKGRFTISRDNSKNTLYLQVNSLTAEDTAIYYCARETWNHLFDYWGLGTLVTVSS VL: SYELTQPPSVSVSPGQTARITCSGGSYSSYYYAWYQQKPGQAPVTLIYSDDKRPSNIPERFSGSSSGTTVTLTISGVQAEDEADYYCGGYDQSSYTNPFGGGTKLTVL , thanks.
[out] 0.0037 s⁻¹

Cited source: patent US20210363269A1
